This listing pairs variants with measured protein stability index.
B1: TPPP (parent)
chain: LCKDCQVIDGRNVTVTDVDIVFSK

variants of: B1; test: protein stability index of a GFP-peptide fusion (GPS, HEK-293T) (PSI 1-6); higher = more stable; conditions: c terminus: a fixed tail appended;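 also: lentivirally expressed fusions sorted by FACS into six bins by GFP to DsRed ratio, PSI derived from sequencing read proportions per bin multiplied by bin number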

Inquiry: If you can, please state the reported protein stability index value of G10Y .
Reply text: 1.99

Inquiry: Data request, read-out protein stability index, for V13I
Reply text: 2.31

Inquiry: Would you mind telling me what protein stability index value was observed for C2P ?
Reply text: 4.04

Inquiry: Using the record for L1P , report its protein stability index.
Reply text: 2.85

Inquiry: Give its protein stability index value. Item: D9P
Reply text: 2.65
